The measurements presented in this section are drawn from the kinase profiling compilation of Christmann-Franck et al. (2016).

# target of assay: MST4 (human) (UniProt Q9P289)
# Sequence (Q9P289 whole entry, looked up): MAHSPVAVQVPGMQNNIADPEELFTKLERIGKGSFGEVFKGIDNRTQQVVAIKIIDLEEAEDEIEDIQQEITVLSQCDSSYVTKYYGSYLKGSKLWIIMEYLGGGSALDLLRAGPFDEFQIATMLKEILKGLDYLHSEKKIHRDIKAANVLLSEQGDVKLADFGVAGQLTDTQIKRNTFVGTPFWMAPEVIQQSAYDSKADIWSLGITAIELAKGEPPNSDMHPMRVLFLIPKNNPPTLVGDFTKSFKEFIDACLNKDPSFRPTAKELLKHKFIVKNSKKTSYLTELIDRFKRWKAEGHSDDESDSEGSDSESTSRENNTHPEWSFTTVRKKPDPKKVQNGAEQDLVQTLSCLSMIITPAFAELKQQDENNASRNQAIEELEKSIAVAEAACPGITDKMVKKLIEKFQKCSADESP
# applied conditions: compound 1.0 µM
experimental endpoint: inhibition (%)
Write the answer as a number in %, unit excluded.

# inhibition measured on MST4 (human) (UniProt Q9P289) for item O=S(=O)(c1cccc2cnccc12)N1CCCNCC1 = 3.5

# inhibition measured on MST4 (human) (UniProt Q9P289) for item CS(=O)c1ccc(-c2nc(-c3ccc(F)cc3)c(-c3ccncc3)[nH]2)cc1 (configuration not stated) = 0

# inhibition measured on MST4 (human) (UniProt Q9P289) for item CC[C@@H](CO)Nc1nc(NCc2ccccc2)c2ncn(C(C)C)c2n1 = 0

# inhibition measured on MST4 (human) (UniProt Q9P289) for item C#Cc1cccc(Nc2ncnc3cc(OCCOC)c(OCCOC)cc23)c1 = 18.7

# inhibition measured on MST4 (human) (UniProt Q9P289) for item CS(=O)(=O)CCNCc1ccc(-c2ccc3ncnc(Nc4ccc(OCc5cccc(F)c5)c(Cl)c4)c3c2)o1 = 0

# inhibition measured on MST4 (human) (UniProt Q9P289) for item Cc1ccc(-c2nn(C(C)(C)C)c3ncnc(N)c23)cc1 = 14.8

# inhibition measured on MST4 (human) (UniProt Q9P289) for item O=C1NCCc2[nH]c(-c3ccnc(-c4ccccc4F)c3)cc21 = 10

* * *

Kindly supply the reported inhibition values for the records listed here.
# target of assay: GSK3B (human) (UniProt P49841)
# Sequence (P49841 whole entry, looked up): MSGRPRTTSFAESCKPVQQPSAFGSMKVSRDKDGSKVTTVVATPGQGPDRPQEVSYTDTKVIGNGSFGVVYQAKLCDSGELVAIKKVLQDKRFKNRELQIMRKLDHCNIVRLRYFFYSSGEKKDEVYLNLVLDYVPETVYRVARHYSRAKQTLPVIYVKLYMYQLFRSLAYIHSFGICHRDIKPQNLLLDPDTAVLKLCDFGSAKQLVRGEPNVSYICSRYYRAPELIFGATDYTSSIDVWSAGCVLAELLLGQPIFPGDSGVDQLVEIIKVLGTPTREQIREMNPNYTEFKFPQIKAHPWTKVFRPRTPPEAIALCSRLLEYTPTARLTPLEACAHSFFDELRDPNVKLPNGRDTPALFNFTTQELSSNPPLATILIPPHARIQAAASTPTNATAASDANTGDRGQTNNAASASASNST
# applied conditions: compound 1.0 µM
Write the answer as a number in %, unit excluded.

Lab note: C#Cc1cccc(Nc2ncnc3cc(OCCOC)c(OCCOC)cc23)c1 gave inhibition of 13.6

Lab note: CC[C@@H](CO)Nc1nc(NCc2ccccc2)c2ncn(C(C)C)c2n1 gave inhibition of 0

Lab note: CS(=O)c1ccc(-c2nc(-c3ccc(F)cc3)c(-c3ccncc3)[nH]2)cc1 (configuration not stated) gave inhibition of 52.6

Lab note: O=S(=O)(c1cccc2cnccc12)N1CCCNCC1 gave inhibition of 0

Lab note: Cc1ccc(-c2nn(C(C)(C)C)c3ncnc(N)c23)cc1 gave inhibition of 2.8

Lab note: CS(=O)(=O)CCNCc1ccc(-c2ccc3ncnc(Nc4ccc(OCc5cccc(F)c5)c(Cl)c4)c3c2)o1 gave inhibition of 0

Lab note: O=C1NCCc2[nH]c(-c3ccnc(-c4ccccc4F)c3)cc21 gave inhibition of 3.4

* * *

Kindly supply the reported inhibition values for the records listed here.
# target of assay: IKBKB (human)
# applied conditions: compound 1.0 µM

Lab note: CS(=O)c1ccc(-c2nc(-c3ccc(F)cc3)c(-c3ccncc3)[nH]2)cc1 (configuration not stated) gave inhibition of 0%

Lab note: O=C1NCCc2[nH]c(-c3ccnc(-c4ccccc4F)c3)cc21 gave inhibition of 0%

Lab note: Cc1ccc(-c2nn(C(C)(C)C)c3ncnc(N)c23)cc1 gave inhibition of 4.4%

Lab note: O=S(=O)(c1cccc2cnccc12)N1CCCNCC1 gave inhibition of 0%

Lab note: CC[C@@H](CO)Nc1nc(NCc2ccccc2)c2ncn(C(C)C)c2n1 gave inhibition of 0%

Lab note: CS(=O)(=O)CCNCc1ccc(-c2ccc3ncnc(Nc4ccc(OCc5cccc(F)c5)c(Cl)c4)c3c2)o1 gave inhibition of 0%

Lab note: C#Cc1cccc(Nc2ncnc3cc(OCCOC)c(OCCOC)cc23)c1 gave inhibition of 6.5%
